This listing pairs compounds with measured viability, T/C.
# Tested on: 941728-121-R-J1-PDC complex spheroid viability
# assay-info: Anticancer human tumor 941728-121-R-J1-PDC patient-derived lung adenocarcinoma cell line growth inhibition [RAS]
# assay-setup: second compound 0.316 µM; first compound 10 µM; stronger effect = lower value

compound	viability, T/C (%)
C[C@@H](NC(=O)c1ncnc(N)c1Cl)c1ncc(C(=O)Nc2cc(C(F)(F)F)c(Cl)cn2)s1 + C#Cc1c(F)ccc2cc(O)cc(-c3ncc4c(N5CC6CCC(C5)N6)nc(OCC56CCCN5CC(F)C6)nc4c3F)c12	37.1
NC1c2ccccc2OC12CCN(c1cnc3c(N4CCCc5ncccc54)n[nH]c3n1)CC2 (stereo not given) + C=CC(=O)N1CCN(c2nc(OCC3CCCN3C)nc3c(F)c(-c4nc(N)cc(C)c4C(F)(F)F)c(Cl)cc23)C(C)C1	16
Cc1nc(N2CCC3(CC2)COC(C)C3N)c(CO)nc1Sc1ccnc(N)c1Cl (stereo not given) + C#Cc1c(F)ccc2cc(O)cc(-c3ncc4c(N5CC6CCC(C5)N6)nc(OCC56CCCN5CC(F)C6)nc4c3F)c12	31
Cc1nc(N2CCC3(CC2)COC(C)C3N)c(CO)nc1Sc1ccnc(N)c1Cl (stereo not given) + C=CC(=O)N1CCN(c2nc(OCC3CCCN3C)nc3c(F)c(-c4nc(N)cc(C)c4C(F)(F)F)c(Cl)cc23)C(C)C1	15.9
CCC(CC)c1cc(NC2CCC(N)C2)n2nccc2n1 (stereo not given) + C=CC(=O)N1CCN(c2nc(OCC3CCCN3C)nc3c(F)c(-c4nc(N)cc(C)c4C(F)(F)F)c(Cl)cc23)C(C)C1	26.1

* * *

# Test system: 941728-121-R-J1-PDC complex spheroid viability
# assay-info: Anticancer human tumor 941728-121-R-J1-PDC cell line growth inhibition [RAS];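 note: spheroids exposed to compounds for 7 days before readout; 100% = DMSO vehicle control viability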
# assay-setup: second compound 0.03 µM; first compound 0.3 µM; stronger effect = lower value
# Source text: RAS pathway inhibitors in Combinations in Complex Spheroids A high-throughput screen of multi-cell type tumor spheroids was designed to identify active combinations of RAS pathway inhibitors and targeted small molecules. Complex spheroids include a stromal component modeled by human endothelial cells (HUVEC) and fibroblasts modeled by human mesenchymal stem cells (MSCs). […] Compounds. […] If the clinical Cmax for an agent had not been determined, the highest concentration tested was 10 microM. […]
Attribute: viability, T/C

molecule	viability, T/C / %
CCc1c2c(nc3ccc(O)cc13)-c1cc3c(c(=O)n1C2)COC(=O)[C@]3(O)CC + CCn1c(-c2cccnc2C(C)OC)c2c3cc(ccc31)N1CCOC(CC(NC(=O)C(C(C)C)N(C)C(=O)C3(F)CCN(C(=O)C#CC(C)(C)N(C)C)CC3)C(=O)N3CCCC(N3)C(=O)OCC(C)(C)C2)C1	8.84
CC1(C)CCC(Nc2ncc(C(F)(F)F)c(-c3c[nH]c4c(P(C)(C)=O)c(C#N)ccc34)n2)CN1 (centres undefined) + CCn1c(-c2cc(N3CCN(C)CC3)cnc2C(C)OC)c2c3cc(ccc31)-c1csc(n1)CC(NC(=O)C1CC1C)C(=O)N1CCCC(N1)C(=O)OCC(C)(C)C2	11.7
CC1(C)CCC(Nc2ncc(C(F)(F)F)c(-c3c[nH]c4c(P(C)(C)=O)c(C#N)ccc34)n2)CN1 (centres undefined) + CCn1c(-c2cccnc2C(C)OC)c2c3cc(ccc31)N1CCOC(CC(NC(=O)C(C(C)C)N(C)C(=O)C3(F)CCN(C(=O)C#CC(C)(C)N(C)C)CC3)C(=O)N3CCCC(N3)C(=O)OCC(C)(C)C2)C1	21.6
CCc1c2c(nc3ccc(O)cc13)-c1cc3c(c(=O)n1C2)COC(=O)[C@]3(O)CC + CCn1c(-c2cc(N3CCN(C)CC3)cnc2C(C)OC)c2c3cc(ccc31)-c1csc(n1)CC(NC(=O)C1CC1C)C(=O)N1CCCC(N1)C(=O)OCC(C)(C)C2	4.56
